meta.source: patent US20160159814A1

targetDesc: human type 1 glycine transporter (GlyT1) (Homo sapiens, UniProt P48067)
Construct: T98G cells (glioma cells) expressing human type 1 glycine transporter (GlyT1) were used; endogenous in cells; host or cells: T98G cells (human glioma cells)
Sequence (P48067 1-706): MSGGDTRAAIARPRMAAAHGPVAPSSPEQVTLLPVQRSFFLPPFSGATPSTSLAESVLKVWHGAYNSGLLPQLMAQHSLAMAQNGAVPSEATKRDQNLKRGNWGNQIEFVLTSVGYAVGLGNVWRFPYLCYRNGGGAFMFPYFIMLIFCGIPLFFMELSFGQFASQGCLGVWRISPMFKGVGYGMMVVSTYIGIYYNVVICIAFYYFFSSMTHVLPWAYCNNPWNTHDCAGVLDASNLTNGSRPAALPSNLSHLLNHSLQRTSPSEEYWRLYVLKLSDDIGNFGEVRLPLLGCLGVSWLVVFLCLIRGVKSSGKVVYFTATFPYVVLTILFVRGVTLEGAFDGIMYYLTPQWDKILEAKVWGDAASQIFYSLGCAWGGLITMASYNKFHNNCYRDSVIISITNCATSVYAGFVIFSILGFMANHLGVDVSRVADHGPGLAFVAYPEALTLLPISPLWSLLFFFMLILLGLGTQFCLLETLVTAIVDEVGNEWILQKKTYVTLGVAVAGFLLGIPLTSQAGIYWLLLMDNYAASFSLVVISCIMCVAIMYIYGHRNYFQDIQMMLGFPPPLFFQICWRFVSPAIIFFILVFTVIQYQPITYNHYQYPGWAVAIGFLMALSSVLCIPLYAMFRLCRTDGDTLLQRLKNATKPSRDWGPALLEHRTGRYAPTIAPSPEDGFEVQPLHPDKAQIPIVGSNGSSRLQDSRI
protocolSummary: Glycine uptake inhibition experiment ([3H] glycine uptake in T98G cells expressing GlyT1)
Assay type: cell-based
conditionNotes: glycine uptake inhibition
pIC50: −log10 of the molar value.
# if value of pIC50 reaches 7, tag criterion met; if it stays below, tag criterion not met

A selection of reference data follows.
Exercise: I'd appreciate it if you could say whether C[C@H](O)c1cccc2c1C(F)(F)C(=O)N2Cc1cccc(C(F)(F)F)c1 has pIC50 at least equal to 7.
Solution: criterion met

Exercise: I'd appreciate it if you could say whether C[C@H](O)c1cccc2c1C(F)(F)C(=O)N2Cc1cc(Br)ccn1 has pIC50 at least equal to 7.
Solution: criterion met

Exercise: I'd appreciate it if you could say whether O=C1N(Cc2cccc(Cl)n2)c2cccc(C(O)C(F)F)c2C1(F)F (centres unmarked) [Compound 10] has pIC50 at least equal to 7.
Solution: criterion met

Exercise: I'd appreciate it if you could say whether C[C@H](O)c1cccc2c1C(F)(F)C(=O)N2Cc1nc2ccccc2[nH]c1=O has pIC50 at least equal to 7.
Solution: criterion met

Exercise: I'd appreciate it if you could say whether C[C@H](O)c1cccc2c1C(F)(F)C(=O)N2Cc1cc(C#N)ccn1 has pIC50 at least equal to 7.
Solution: criterion not met

Exercise: I'd appreciate it if you could say whether C[C@H](O)c1cccc2c1C(F)(F)C(=O)N2Cc1nc2ccccc2n1C has pIC50 at least equal to 7.
Solution: criterion met

---
Exercise: I'd appreciate it if you could say whether O=C1N(Cc2cncc(Cl)c2)c2cccc(C(O)C(F)(F)F)c2C1(F)F (single isomer, unassigned) [Compound 22] has pIC50 at least equal to 7.
Solution: criterion not met
